Listing of IC50 toward Melanin-concentrating hormone receptor 1 (Homo sapiens, UniProt Q99705), each taken from a published source.
Response field label takes Condition met when IC50 is strictly below 20 nM and Condition not met in all other cases.

For orientation, consider the following solved cases.
{"columns": ["compound", "answer-label"],
 "data": [
  ["Cc1cc(CN2CCN(C)CC2)ccc1C(=O)Cn1ncc(OCc2ccc(Cl)cn2)cc1=O", "Condition not met"],
  ["CNCc1ccc(C(=O)Cn2ccc(OCc3ccc(Br)cn3)cc2=O)c(C)c1", "Condition not met"],
  ["COc1ccc2nc(NC3CCCC(NCc4cc5ccccc5o4)C3)cc(C)c2c1 (mixture of isomers)", "Condition not met"],
  ["Cc1cc(CN2CC3CC(C2)C3O)ccc1C(=O)Cn1ccc(OCc2ccc(Cl)cn2)cc1=O (stereo not shown)", "Condition met"],
  ["CCNCc1ccc(C(=O)Cn2ncc(OCc3ccc(OC)cn3)cc2=O)c(C)c1", "Condition not met"],
  ["CCN1CCN(Cc2ccc(C(=O)Cn3ccc(OCc4ccc(Br)cn4)cc3=O)c(C)c2)CC1", "Condition not met"]
]}

-- ask A record lists O=c1cc(OCc2cccc(Cl)c2)ccn1-c1ccc(OCCN2CCCC2)cc1 . Is its IC50 below 20 nM?
-- reply Condition met

-- ask Determine whether this compound shows IC50 lower than 20 nM (ties excluded): Cc1c(C2CC2)nc2ccc(NC(=O)c3ccc(NC(=O)c4ccccn4)cc3)cn12
-- reply Condition met

-- ask Given CCN(CC)Cc1ccc(CCNC(=O)c2ccc(-c3ccc(OC)cc3)cc2)cc1 , is recorded IC50 strictly lower than 20 nM?
-- reply Condition met

-- ask IC50 under 20 nM? Item: CN1CCc2ccc(C(=O)Cn3ncc(OCc4ccccc4)cc3=O)cc2C1
-- reply Condition met

-- ask Item COCCN(C)Cc1ccc(CCc2ccc(OCc3ccc(F)cc3)nn2)cc1 : IC50 beneath 20 nM, strictly?
-- reply Condition met

-- ask Below 20 nM on IC50? Entry CCCNCc1ccc(CCn2ccc(OCc3ccc(F)cc3)cc2=O)cc1
-- reply Condition met

-- ask Strictly below 20 nM in IC50? O=c1cc(OCc2ccsc2)ccn1-c1ccc(OCCN2CCCC2)cc1
-- reply Condition met

-- ask Could you please tell me whether IC50 recorded for O=C(Cn1ccc(OCc2ccccc2)cc1=O)c1ccc(CN2CC[C@@H](O)C2)cc1 is less than 20 nM?
-- reply Condition met

-- ask In the record for CC(=O)N1CCN(CCOc2ccc(CCc3ccc(OCc4ccccc4)nn3)nc2)CC1 , is IC50 less than 20 nM?
-- reply Condition met

-- ask Is it true that IC50 reported for Cc1cc(CN2CCCC2)ccc1C(=O)Cn1ncc(OCc2ccc(Cl)cn2)cc1=O is less than 20 nM?
-- reply Condition met

-- ask IC50 under 20 nM? Item: Cc1cc(CN2CC[C@H](O)C2)ccc1C(=O)Cn1ccc(OCc2ccc(Cl)cn2)cc1=O
-- reply Condition not met

-- ask Take the compound Cc1ccc(C2CCN(C(=O)NCCc3ccc(CN4CCCC4)cc3)CC2)cc1 and say whether its IC50 is less than 20 nM.
-- reply Condition not met

-- ask Identify whether the compound Cc1cc(N[C@H]2CC[C@H](NCc3cn(C)c4cnccc34)C2)nc2ccc(F)cc12 records IC50 below 20 nM.
-- reply Condition not met

-- ask Quick check: does COc1ccc(-c2nnc(C(=O)N3CC(Oc4ccc(CN5CC6(C5)OCC6(C)C)cc4)C3)o2)cc1 have IC50 under 20 nM?
-- reply Condition not met

-- ask Find out if reported IC50 for O=C(Nc1ccc(Cl)cc1Cl)NC1CCN(Cc2ccn(-c3ccc(C(F)(F)F)cc3)c2)CC1 is less than 20 nM
-- reply Condition not met

-- ask Find out if reported IC50 for CCCN(CC1CC1)[C@H](C)/C=C(\C)c1ccc(C#Cc2ccc(-c3ccc(Cl)cc3)cn2)cc1 is less than 20 nM
-- reply Condition not met

-- ask Hello, I'm reviewing records and need to know if IC50 of Cc1cc(CN2CCC(CO)CC2)ccc1C(=O)Cn1ccc(OCc2ccccc2)cc1=O is below 20 nM. Could you check?
-- reply Condition not met

-- ask Is it true that IC50 reported for Cc1cc(CN2CCC(O)CC2)ccc1C(=O)Cn1ncc(OCc2ccc(Cl)cn2)cc1=O is less than 20 nM?
-- reply Condition not met

-- ask Dear colleague, could you confirm whether IC50 of Cc1cc(CN2CCCC[C@@H]2CO)ccc1C(=O)Cn1ccc(OCc2ccc(Cl)cn2)cc1=O falls below 20 nM? Thanks.
-- reply Condition not met
